# measurement notes: Components of the Cytosolic LPS Sensing Pathway: Gene Identification via Genome-wide siRNA Screen;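 further: robust z of the log signal after scaling to non-targeting control siRNA wells of the plate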
# condition set: RAW264.7 macrophages, IL-1a HTRF, actives lie on both sides, screened at 100 nM (by protocol), cells primed 5 h with Pam3CSK4 first
Among all 53,000 sequences or so, about 3,700 (7%) were called active.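 How the source made its calls: active means gene knockdowns whose robust z-score for IL-1 alpha signal is at least 2 or at most -2, so actives lie on both sides; inactive means the rest.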 The entries come from a sample that favours actives as a whole.
Form entry, call: pick from True (active), False (inactive)

Inquiry: GET /call?item= GGUUUCGUCUUGAUAUCUATT against Trpc1 returns the recorded outcome of this test.
Reply text: False

Inquiry: # iterate: CCUACACCUAGAAAUCUAGTT against Gpr3
Reply text: False

Inquiry: # iterate: GGAUCCUCGGACUAAAAGUTT against Pnma1
Reply text: False

Inquiry: # iterate: GGUUGUGAACAGUCCACCCTT against Ski
Reply text: False

Inquiry: # iterate: GGCUAUAAAAGCACAGUUUTT against Slc25a26
Reply text: False

---
Inquiry: GET /call?item= GGUGACACUCAAGGUGUCATT against Ldlrap1 returns the recorded outcome of this test.
Reply text: True

Inquiry: # iterate: GCGCGAUAGAUUUUGUUUATT against Ier5l
Reply text: False

Inquiry: # iterate: GGAUUUCCCAUCAAAGACGTT against Serpinf2
Reply text: False

Inquiry: # iterate: GCCAGUUGGUUACUAUGGATT against Tax1bp3
Reply text: False

Inquiry: # iterate: GGAACAGCAGUUUUUGUUUTT against Rnf44
Reply text: False

Inquiry: # iterate: GGAUGGUCUUAGGAUUACGTT against Fgf15
Reply text: True

Inquiry: # iterate: GCCAAAUUAAGUAUCUUGATT against Lamp2
Reply text: False

----------
# measurement notes: Components of the Cytosolic LPS Sensing Pathway: Gene Identification via Genome-wide siRNA Screen;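 further: robust z of the log signal after scaling to non-targeting control siRNA wells of the plate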
# condition set: RAW264.7 macrophages, IL-1a HTRF, actives lie on both sides, screened at 100 nM (by protocol), cells primed 5 h with Pam3CSK4 first
Hit rate of the full screen: of about 53,000 sequences, about 3,700 (7%) were called active. Shown is part of a subset that was picked to be rich in actives.
observation type: z-score
Numbers only.

Below, each entry is followed by its recorded z-score result.
Inquiry: Bench note: what z-score did GGGAAGUUCAUAUUGAUCCTT against Gsdma show?
Reply text: 0.691

Inquiry: # iterate: UCUUUGGCAACACUACCAUTT against Olfr1386
Reply text: 0.366

Inquiry: # iterate: GCCGUGCAAAGUUUAUUCATT against Nme8
Reply text: 1.06

Inquiry: # iterate: GGGCAAUGAUUUCGCCUUCTT against Ninj1
Reply text: 0.337

Inquiry: # iterate: GGCAGUGGUUAAAGGUUCCTT against Lrp6
Reply text: 2.27

Let us move to another entry and its z-score.
Inquiry: Bench note: what z-score did GGAGCUGUCCAGGUUUAUUTT against Psmd6 show?
Reply text: -2.72

----------
# measurement notes: Components of the Cytosolic LPS Sensing Pathway: Gene Identification via Genome-wide siRNA Screen;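 further: robust z of the log signal after scaling to non-targeting control siRNA wells of the plate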
# condition set: RAW264.7 macrophages, IL-1a HTRF, actives lie on both sides, screened at 100 nM (by protocol), cells primed 5 h with Pam3CSK4 first
Among all 53,000 sequences or so, about 3,700 (7%) were called active.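 How the source made its calls: active means gene knockdowns whose robust z-score for IL-1 alpha signal is at least 2 or at most -2, so actives lie on both sides; inactive means the rest.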 This is one part of a sample in which actives are shown more often than they occur.
Form entry, call: pick from active, inactive

Please review the following examples before continuing.
Inquiry: GET /call?item= GGAUUAUGGACCUCUUGGUTT against 4930595M18Rik returns the recorded outcome of this test.
Reply text: inactive

Inquiry: # iterate: GCAACACGUACGAGCUCAATT against Pou2af1
Reply text: inactive

Inquiry: # iterate: GGAAACUGAGCUUAAGAUUTT against Cald1
Reply text: inactive

Inquiry: # iterate: CCUCAACACUCAGCUCAAUTT against Ifna14
Reply text: active

Inquiry: # iterate: CCCUCUACACUAUACCACATT against Olfr347
Reply text: inactive

Inquiry: # iterate: CGGGUUUCAUUAUUAUUCCTT against Foxa1
Reply text: inactive

---
Inquiry: GET /call?item= GCUUUUAACAUCGAGUAAUTT against Top2b returns the recorded outcome of this test.
Reply text: inactive

Inquiry: # iterate: GGCUAUGUUAAUUUGUCCCTT against Hc
Reply text: inactive

Inquiry: # iterate: GGGACAUUAUGCUUAUGACTT against Srsf7
Reply text: inactive

Inquiry: # iterate: CCGUUUUGUCUGAAUUCCCTT against 4930515G01Rik
Reply text: active

Inquiry: # iterate: GGAUUUGGAGUAGAUCAAUTT against Tial1
Reply text: inactive

Inquiry: # iterate: GGCAGAUUGUGAAAAAACUTT against Slc9a6
Reply text: inactive
